Listing of recorded inhibition by entry.
test: antivirals against arbovirus infection, primary screen, cell-based, full library, 10K replicate subset (AID 1251); conditions: arbovirus infection cell-based antiviral screen, at 10 µM, active compounds read high
In all, about 200,000 compounds went through this assay and about 720 (0.36%) were called active. Many of the other results were omitted from the sample, so actives are more common in it than they were.
Field format: number, assumed %, no unit text.

Below, each entry is followed by its recorded inhibition result.
- smiles_notation: "N#Cc1ccc(C(=O)Nc2nc(-c3cccs3)c(C(=O)C(F)(F)F)s2)cc1"
  unit_text: "%"
  inhibition: 2.83
- smiles_notation: "O=C(CN1CCN(S(=O)(=O)/C=C/c2ccccc2)CC1)Nc1ccc(N2CCOCC2)cc1"
  unit_text: "%"
  inhibition: -11
- smiles_notation: "CC(=O)Nc1ccc(OCCC[n+]2cccc(C(=O)[O-])c2)cc1"
  unit_text: "%"
  inhibition: 1.68
- smiles_notation: "CC(=O)Nc1ccc(NC(=O)COc2ccccc2C(=O)Nc2cccc(Cl)c2Cl)cc1"
  unit_text: "%"
  inhibition: 33.1
- smiles_notation: "O=C(c1ccncc1)N1CCN(c2ccc3ccccc3n2)CC1"
  unit_text: "%"
  inhibition: 5.37
- smiles_notation: "Cc1nc(-c2ccc(NC(=O)c3cccs3)cc2)cs1"
  unit_text: "%"
  inhibition: -9.57
- smiles_notation: "Cc1ccc(NC(=O)N2CCC(c3nc4c(nnn4Cc4c(F)cccc4Cl)c(=O)[nH]3)CC2)cc1"
  unit_text: "%"
  inhibition: -3.45
- smiles_notation: "CCn1c(-c2cccnc2Cl)nc2cc(C)c(C)cc21"
  unit_text: "%"
  inhibition: 9.84
- smiles_notation: "CCCc1cc(=O)[nH]c(SCC(=O)OCc2ccccc2)n1"
  unit_text: "%"
  inhibition: 0.37
- smiles_notation: "CCC(=O)NCc1cc(-c2nn(C)c(=O)c3ccccc23)ccc1OC"
  unit_text: "%"
  inhibition: -10.6

The compound identified as `Cc1ccccc1Nc1scc(-c2ccc(Br)cc2)[n+]1-c1ccccc1C` registered its inhibition at 15.8

The compound identified as `CCOc1ccc(Br)cc1S(=O)(=O)Nc1cccc(S(=O)(=O)N(CC)CC)c1` registered its inhibition at 2.51

The compound identified as `CC(=O)Nc1ccc(Sc2ccccc2C(=O)N2CCCC2)cn1` registered its inhibition at 12.2
